System: SK-MEL-5 melanoma
assay explanation: NCI-60 one-dose screen, 48 h
stated conditions: 10 µM unless noted
About 83,000 compounds went through this panel and 20% of them were active in at least one assay; those are over-represented in the sample as a whole. Active and inactive are the calls of the source. How the source made its calls: active means growth percent below 10; inactive means the rest.
Labels: active, inactive

{"molecule": "CCC1CCC(C)NC1 (configuration not stated)", "experimental system": "SK-MEL-5 melanoma", "group label": "inactive"}
{"molecule": "Nc1ccccc1SC1CC(=O)N(c2ccc(Cl)c(Cl)c2)C1=O (configuration not stated)", "experimental system": "SK-MEL-5 melanoma", "group label": "inactive"}
{"molecule": "CC(C)C(=O)OCCOc1ccc(C(C)(C)C)cc1", "experimental system": "SK-MEL-5 melanoma", "group label": "inactive"}
{"molecule": "Cc1ccc(S(=O)(=O)CCCl)cc1", "experimental system": "SK-MEL-5 melanoma", "group label": "inactive"}
{"molecule": "Nc1nc(Cl)cc(Cl)n1", "experimental system": "SK-MEL-5 melanoma", "group label": "inactive"}
{"molecule": "O=C(NC(=S)N1CC=CCC1)c1ccccc1", "experimental system": "SK-MEL-5 melanoma", "group label": "inactive"}
{"molecule": "CCOC(=O)c1c[nH][nH]c1=O", "experimental system": "SK-MEL-5 melanoma", "group label": "inactive"}
{"molecule": "N#CC1(O)CCCCC1", "experimental system": "SK-MEL-5 melanoma", "group label": "inactive"}
{"molecule": "CC(C)(CC(=O)O)CC(=O)O", "experimental system": "SK-MEL-5 melanoma", "group label": "inactive"}
{"molecule": "O=Cc1ccc(F)cc1", "experimental system": "SK-MEL-5 melanoma", "group label": "inactive"}
{"molecule": "CC(C)c1ncc([N+](=O)[O-])n1C", "experimental system": "SK-MEL-5 melanoma", "group label": "inactive"}
{"molecule": "COc1cc(OC)c(NC(=O)C(Sc2nc(C)cc(C)c2C#N)c2ccccc2)cc1Cl (configuration not stated)", "experimental system": "SK-MEL-5 melanoma", "group label": "inactive"}
{"molecule": "CCOC(=O)C(CCC#N)(CCC#N)C(=O)OCC", "experimental system": "SK-MEL-5 melanoma", "group label": "inactive"}
{"molecule": "CC(=O)Nc1ccc(C(=O)c2ccc(S(=O)(=O)Nc3ccccc3)cc2)cc1", "experimental system": "SK-MEL-5 melanoma", "group label": "inactive"}
{"molecule": "CSc1nc2[nH]ncc2c(=O)[nH]1", "experimental system": "SK-MEL-5 melanoma", "group label": "inactive"}
{"molecule": "CC(=O)c1cccc(NS(=O)(=O)c2ccc(C)cc2)c1", "experimental system": "SK-MEL-5 melanoma", "group label": "inactive"}
{"molecule": "CC(=O)Oc1c(Cl)cccc1-c1ccccc1", "experimental system": "SK-MEL-5 melanoma", "group label": "inactive"}
{"molecule": "COc1cc(C(=O)NC(=S)NCc2ccncc2)cc(OC)c1OC", "experimental system": "SK-MEL-5 melanoma", "group label": "inactive"}
{"molecule": "CCOP(=O)(NC(c1ccccc1)c1ccccc1)OCC", "experimental system": "SK-MEL-5 melanoma", "group label": "inactive"}
{"molecule": "CCN(CC)c1ccc2nc3ccc(N=Nc4ccc(N(C)C)cc4)cc3[n+](-c3ccccc3)c2c1", "experimental system": "SK-MEL-5 melanoma", "group label": "active"}
{"molecule": "CC(=O)Nc1ncc(S(=O)(=O)c2ccc([N+](=O)[O-])cc2)s1", "experimental system": "SK-MEL-5 melanoma", "group label": "inactive"}
{"molecule": "O=C(Nc1c(Cl)cc(Cl)cc1Cl)ON=C1CCCCC1", "experimental system": "SK-MEL-5 melanoma", "group label": "inactive"}
{"molecule": "S=C(NCc1ccccc1)N1CCC(CCCC2CCN(C(=S)NCc3ccccc3)CC2)CC1", "experimental system": "SK-MEL-5 melanoma", "group label": "inactive"}
{"molecule": "CCCCCCCCCCCCCCCCCC(=O)NCCNC(=O)CCCCCCCCCCCCCCCCC", "experimental system": "SK-MEL-5 melanoma", "group label": "inactive"}
{"molecule": "O=C1NC(=O)/C(=C\\c2ccncc2)N1", "experimental system": "SK-MEL-5 melanoma", "group label": "inactive"}
{"molecule": "C=CCc1cc(OC)c(O)c(OC)c1", "experimental system": "SK-MEL-5 melanoma", "group label": "inactive"}
{"molecule": "COC(c1ccc2c(c1)OCO2)C(C)Br (configuration not stated)", "experimental system": "SK-MEL-5 melanoma", "group label": "inactive"}
